assay: Plasma stability study, human plasma; assay type: in vitro ADME; conditions: Human plasma, 1 μM, 37° C., 240 min
Where a SMILES comes first, the peptide text is derived from it. [ ]: non-standard residue; d: D form. The star is where a group is joined. pY = N[CH](Cc1ccc(OP(=O)(O)O)cc1)C(=O)O; Hexanoyl = CCCCCC(=O)*; Ahx = NCCCCCC(=O)O
measured-metric: Plasma Stability (% Parent Remaining) 240 min (%)
Your answer should be a plain number; it is taken to be in %.

Would you please look over these solved cases?
>  <compound>
CCCCCC(=O)N[C@@H](Cc1ccc(O)cc1)C(=O)N[C@H](C(=O)NCCCCCC(N)=O)[C@@H](C)CC [Base Structure, reference compound] (Hexanoyl-Tyr-Ile-[Ahx]-NH2)

>  <readout-unit>
%

>  <value-measured>
98

$$$$
>  <compound>
CCCCCC(=O)NC(Cc1ccc(OC(=O)NCCN(C)C)cc1)C(=O)NC(C(=O)NCCCCCC(N)=O)C(C)CC (centres unmarked)

>  <readout-unit>
%

>  <value-measured>
11

$$$$
>  <compound>
CCCCCC(=O)N1C(Cc2ccc(OP(=O)([O-])[O-])cc2)C(=O)N(C(C(=O)NCCCCCC(N)=O)C(C)CC)C12CCN(C)CC2.[Na+].[Na+] (centres unmarked)

>  <readout-unit>
%

>  <value-measured>
72

$$$$
>  <compound>
CCCCCC(=O)NC(Cc1ccc(OP(=O)([O-])O)cc1)C(=O)NC(C(=O)NCCCCCC(N)=O)C(C)CC.[Na+] (centres unmarked) [Compound A30] (Hexanoyl-[pY]-Ile-[Ahx]-NH2; configuration not given here)

>  <readout-unit>
%

>  <value-measured>
12

$$$$

Reported Plasma Stability (% Parent Remaining) 240 min for CCCCCC(=O)NC(Cc1ccc(OC(=O)N2CCN(C)CC2)cc1)C(=O)NC(C(=O)NCCCCCC(N)=O)C(C)CC (centres unmarked) : what is it?
90

* * *

assay: Metabolic stability in simulated gastric fluid (SGF), pH 1.2, with or without pepsin; type: in vitro ADME; details: +Pepsin (0.32%), 5 μM, 37° C.
Where a SMILES comes first, the peptide text is derived from it. [ ]: non-standard residue; d: D form. The star is where a group is joined. ξ: configuration not given here. pY = N[CH](Cc1ccc(OP(=O)(O)O)cc1)C(=O)O; ξpY = NC(Cc1ccc(OP(=O)(O)O)cc1)C(=O)O; Ile(3ξ) = CCC(C)[C@H](N)C(=O)O; Hexanoyl = CCCCCC(=O)*; Ahx = NCCCCCC(=O)O
measured-metric: SGF Stability (pH 1.2) Half-Life (min)
Your answer should be a plain number; it is taken to be in min.

Would you please look over these solved cases?
>  <compound>
CCCCCC(=O)NC(Cc1ccc(OP(=O)(OCCN(C)C)OCCN(C)C)cc1)C(=O)NC(C(=O)NCCCCCC(N)=O)C(C)CC (stereo not drawn)

>  <SGF Stability (pH 1.2) Half-Life (min)>
46.4

$$$$
>  <compound>
CCCCCC(=O)NC(Cc1ccc(OC(=O)NCCN(C)C)cc1)C(=O)NC(C(=O)NCCCCCC(N)=O)C(C)CC (stereo not drawn)

>  <SGF Stability (pH 1.2) Half-Life (min)>
265.1

$$$$
>  <compound>
CCCCCC(=O)NC(Cc1ccc(OP(=O)([O-])O)cc1)C(=O)NC(C(=O)NCCCCCC(N)=O)C(C)CC.[Na+] (stereo not drawn) [Compound A30] (Hexanoyl-[pY]-Ile-[Ahx]-NH2; configuration not given here)

>  <SGF Stability (pH 1.2) Half-Life (min)>
248.3

$$$$
>  <compound>
CCCCCC(=O)NC(Cc1ccc(OP(=O)(O)O)cc1)C(=O)N[C@H](C(=O)NCCCCCC(N)=O)C(C)CC.N.N (stereo partly drawn) [Compound A29] (Hexanoyl-[ξpY]-[Ile(3ξ)]-[Ahx]-NH2)

>  <SGF Stability (pH 1.2) Half-Life (min)>
225.0

$$$$
>  <compound>
CCCCCC(=O)NC(Cc1ccc(OC(=O)N2CCN(C)CC2)cc1)C(=O)NC(C(=O)NCCCCCC(N)=O)C(C)CC (stereo not drawn)

>  <SGF Stability (pH 1.2) Half-Life (min)>
84.5

$$$$

Reported SGF Stability (pH 1.2) Half-Life (min) for CCCCCC(=O)N[C@@H](Cc1ccc(O)cc1)C(=O)N[C@H](C(=O)NCCCCCC(N)=O)[C@@H](C)CC [Base Structure, reference compound] (Hexanoyl-Tyr-Ile-[Ahx]-NH2) : what is it?
26.0

* * *

experiment: Metabolic stability in simulated intestinal fluid (SIF), pH 6.8, with or without pancreatin; type: in vitro ADME; settings: +Pancreatin (1%), 5 μM, 37° C., 240 min
Where a SMILES comes first, the peptide text is derived from it. [ ]: non-standard residue; d: D form. The star is where a group is joined. ξ: configuration not given here. pY = N[CH](Cc1ccc(OP(=O)(O)O)cc1)C(=O)O; ξpY = NC(Cc1ccc(OP(=O)(O)O)cc1)C(=O)O; Ile(3ξ) = CCC(C)[C@H](N)C(=O)O; Hexanoyl = CCCCCC(=O)*; Ahx = NCCCCCC(=O)O
molecules and their reported SIF Stability (pH 6.8) 240 min
Answer by giving the amount and then stating its unit.

Would you please look over these solved cases?
>  <molecule>
CCCCCC(=O)NC(Cc1ccc(OP(=O)(OCCN(C)C)OCCN(C)C)cc1)C(=O)NC(C(=O)NCCCCCC(N)=O)C(C)CC (stereo not drawn) [Compound A18]

>  <SIF Stability (pH 6.8) 240 min>
25%

$$$$
>  <molecule>
CCCCCC(=O)NC(Cc1ccc(OC(=O)N2CCN(C)CC2)cc1)C(=O)NC(C(=O)NCCCCCC(N)=O)C(C)CC (stereo not drawn) [Compound A20]

>  <SIF Stability (pH 6.8) 240 min>
61%

$$$$

Reported SIF Stability (pH 6.8) 240 min for CCCCCC(=O)NC(Cc1ccc(OP(=O)([O-])O)cc1)C(=O)NC(C(=O)NCCCCCC(N)=O)C(C)CC.[Na+] (stereo not drawn) [Compound A30] (Hexanoyl-[pY]-Ile-[Ahx]-NH2; configuration not given here) : what is it?
34%

And for CCCCCC(=O)NC(Cc1ccc(OC(=O)NCCN(C)C)cc1)C(=O)NC(C(=O)NCCCCCC(N)=O)C(C)CC (stereo not drawn) [Compound A21] ?
93%

And for CCCCCC(=O)N1C(Cc2ccc(OP(=O)([O-])[O-])cc2)C(=O)N(C(C(=O)NCCCCCC(N)=O)C(C)CC)C12CCN(C)CC2.[Na+].[Na+] (stereo not drawn) [Compound 2] ?
34%

And for CCCCCC(=O)NC(Cc1ccc(OP(=O)(O)O)cc1)C(=O)N[C@H](C(=O)NCCCCCC(N)=O)C(C)CC.N.N (stereo partly drawn) [Compound A29] (Hexanoyl-[ξpY]-[Ile(3ξ)]-[Ahx]-NH2) ?
104%

* * *

assay: Plasma stability study, rat plasma; format: in vitro ADME; details: Rat plasma, 1 μM, 37° C., 60 min
Where a SMILES comes first, the peptide text is derived from it. [ ]: non-standard residue; d: D form. The star is where a group is joined. pY = N[CH](Cc1ccc(OP(=O)(O)O)cc1)C(=O)O; Hexanoyl = CCCCCC(=O)*; Ahx = NCCCCCC(=O)O
measured-metric: Plasma Stability (% Parent Remaining) 60 min (%)
Your answer should be a plain number; it is taken to be in %.

Would you please look over these solved cases?
>  <compound>
CCCCCC(=O)N1C(Cc2ccc(OP(=O)([O-])[O-])cc2)C(=O)N(C(C(=O)NCCCCCC(N)=O)C(C)CC)C12CCN(C)CC2.[Na+].[Na+] (centres unmarked)

>  <value-measured>
82

$$$$
>  <compound>
CCCCCC(=O)NC(Cc1ccc(OP(=O)([O-])O)cc1)C(=O)NC(C(=O)NCCCCCC(N)=O)C(C)CC.[Na+] (centres unmarked) [Compound A30] (Hexanoyl-[pY]-Ile-[Ahx]-NH2; configuration not given here)

>  <value-measured>
88

$$$$
>  <compound>
CCCCCC(=O)N[C@@H](Cc1ccc(O)cc1)C(=O)N[C@H](C(=O)NCCCCCC(N)=O)[C@@H](C)CC [Base Structure, reference compound] (Hexanoyl-Tyr-Ile-[Ahx]-NH2)

>  <value-measured>
87

$$$$
>  <compound>
CCCCCC(=O)NC(Cc1ccc(OC(=O)N2CCN(C)CC2)cc1)C(=O)NC(C(=O)NCCCCCC(N)=O)C(C)CC (centres unmarked)

>  <value-measured>
73

$$$$

As a next step, examine the compound that follows.
Reported Plasma Stability (% Parent Remaining) 60 min for CCCCCC(=O)NC(Cc1ccc(OC(=O)NCCN(C)C)cc1)C(=O)NC(C(=O)NCCCCCC(N)=O)C(C)CC (centres unmarked) : what is it?
61
